# Test system: T-47D breast
# runDescription: NCI-60 one-dose screen, 48 h (100 = growth as untreated, 0 = no growth, -100 = all killed)
# testContext: 10 µM unless noted
# Experimental: Growth inhibition of the T-47D human tumor cell line is measured as a screen for anti-cancer activity. Cells are grown in 96 well plates and exposed to the test compound for 48 hours. Compounds are tested at a single concentration, which is 10^-5 M for most compounds. The reported endpoint is percent growth (GI% or GIPRCNT), where numbers from 0 - 100% represent growth inhibition, and numbers from -100% - 0 represent cell death. For example, a value of 40 represents 60% growth inhibition. […]
Compounds without any hit were thinned out: in the full panel of roughly 83,000, 20% have a hit.
Label key: class 1 means growth under 70%; class 0 means growth of 70% or more.

[[record]]
compound = "C=CCn1c(SCC(=O)Nc2ccc(C(=O)/C=C/c3ccccc3)cc2)nnc1-c1ccc(OC)c(OC)c1"
classassignment = "class 1"

[[record]]
compound = "COc1ccc(C(=O)/C=C/c2cn(-c3ccccc3)nc2-c2cccc(Nc3ccnc4cc(Cl)ccc34)c2)cc1"
classassignment = "class 0"

[[record]]
compound = "OC(c1cc2cc(Cl)ccc2c2cc(C(F)(F)F)ccc12)C1CCCCN1 (stereo unspecified)"
classassignment = "class 1"

[[record]]
compound = "Nc1nc(N)c2cc(Sc3ccc(Cl)cc3)ccc2n1"
classassignment = "class 1"

[[record]]
compound = "O=C(CCCCCCc1nc2ccc(Br)cc2[nH]1)NO"
classassignment = "class 1"

[[record]]
compound = "CN(C)c1ccc(N2Cc3ccccc3OC3=C2C(=O)c2c(O)ccc(O)c2C3=O)cn1"
classassignment = "class 1"

[[record]]
compound = "COc1ccc(/C(=C\\c2cc(OC)c(OC)c(OC)c2)C(=O)N2CCCNCC2)cc1"
classassignment = "class 0"

[[record]]
compound = "C=C(C)c1ccc(/C=N/NC(N)=S)cc1"
classassignment = "class 1"

[[record]]
compound = "CCN(CC)CCCCCCCNc1cc(OC)cc2c(C)ccnc12"
classassignment = "class 1"

[[record]]
compound = "Cc1ccc(NC(=O)c2[nH]c(SCCN(C)C)nc2-c2ccc(F)cc2)cc1Nc1ccc2ncn(C)c(=O)c2c1"
classassignment = "class 0"

[[record]]
compound = "COc1ccc(C2CC(c3ccc(Nc4ccnc5cc(Cl)ccc45)cc3)=NN2c2ccccc2)cc1 (stereo unspecified)"
classassignment = "class 0"

[[record]]
compound = "CC[C@H](Nc1nc(N)nc(N)c1Cl)c1nc2cccc(NCc3ccc(C(=O)NO)cc3)c2c(=O)n1-c1ccccc1"
classassignment = "class 1"

[[record]]
compound = "Cc1cc(NC(=O)C2c3ccccc3C(=O)N(CC(C)C)C2c2cccs2)no1 (stereo unspecified)"
classassignment = "class 1"

[[record]]
compound = "CCCCNCC(O)c1cc2c(Cl)cc(Cl)cc2c2cc(C(F)(F)F)ccc12 (stereo unspecified)"
classassignment = "class 1"

[[record]]
compound = "CCN(CC)Cc1cc(Nc2nc(NC3CCC(N(C)C)CC3)c3ccccc3n2)ccc1OC (stereo unspecified)"
classassignment = "class 1"

[[record]]
compound = "O=c1c2sc3ccccc3c2nnn1-c1ccc(F)c(Cl)c1"
classassignment = "class 1"

[[record]]
compound = "Clc1ccccc1Nc1nnc(-c2ccncc2)s1"
classassignment = "class 0"

[[record]]
compound = "COc1cc(C2=NOC(c3cc(OC)c(OC)c(OC)c3)C2)ccc1OCCCCOc1cc2c(cc1OC)C(=O)N1CCC[C@H]1C=N2 (stereo partly specified)"
classassignment = "class 1"

[[record]]
compound = "COc1ccc2c(c1)CCCC21C(=O)Nc2c(Cl)cccc21 (stereo unspecified)"
classassignment = "class 0"

[[record]]
compound = "CC(=O)c1c(C)nc(-c2cc(C)cc(Cl)c2)nc1-c1cccc(Oc2ccccc2)c1"
classassignment = "class 0"

[[record]]
compound = "CC(=O)N[C@@H](CCC(N)=O)C(=O)O"
classassignment = "class 0"

[[record]]
compound = "Oc1[nH]c2ccccc2c1/C=c1/ccc2c(c1)N=C(c1ccc(C(F)(F)F)cc1)N=2"
classassignment = "class 1"

[[record]]
compound = "COc1cc2c(cc1OC)C(=O)OC2"
classassignment = "class 0"

[[record]]
compound = "Cc1cc(N=Nc2ccc(-c3ccc(N=Nc4ccc(O)c(C(=O)O)c4)cc3)cc2)c(N)c(N=Nc2ccc(C(=O)O)cc2)c1N"
classassignment = "class 0"

[[record]]
compound = "Cc1cc(C)cc(Nc2cc(C)nc3nc(C(F)(F)F)nn23)c1"
classassignment = "class 1"

[[record]]
compound = "CCOCC(O)(c1ccc(Cl)cc1)c1ccc(Cl)cc1"
classassignment = "class 0"

[[record]]
compound = "COCCCNCC(=O)Nc1c(C)cccc1C"
classassignment = "class 0"

[[record]]
compound = "CCCCCCCCCCCC1=NC(C)(C)CN1C(C)(C)CO"
classassignment = "class 1"

[[record]]
compound = "COc1cc(/C=C/c2ccc3c(Br)cc(Br)c(O)c3n2)ccc1O"
classassignment = "class 1"

[[record]]
compound = "CCCCCCCCCCCCCCCc1cc(O)ccc1[N+](=O)[O-]"
classassignment = "class 1"

[[record]]
compound = "COc1cc(C)c2c(=O)c3c(oc2c1)C(=O)c1c(O)c(OC)cc(O)c1C3=O"
classassignment = "class 1"

[[record]]
compound = "CCc1ccc2c(c1)N(CCO)C1=C(C(=O)OC1)C2c1cccc(Cl)c1 (stereo unspecified)"
classassignment = "class 1"

[[record]]
compound = "Nc1ccc(C(OC(=O)c2cc3ccccc3c(Cc3c(O)c(C(=O)OC(c4ccc(N)cc4)(c4ccc(N)cc4)c4ccc(N)cc4)cc4ccccc34)c2O)(c2ccc(N)cc2)c2ccc(N)cc2)cc1"
classassignment = "class 1"

[[record]]
compound = "C/C(=C\\C(=N\\N=C(N)N)c1ccc(Cl)cc1)c1ccc(Cl)cc1"
classassignment = "class 1"

[[record]]
compound = "CC(C)N1CCN(c2ccncc2S(=O)(=O)N2CCN(C)CC2)CC1"
classassignment = "class 0"

[[record]]
compound = "NC(=S)N/N=C(/c1cccs1)C1CC1"
classassignment = "class 1"

[[record]]
compound = "COc1ccc2nc(NC(=O)/C(=C/c3cc(OC)c(OC)c(OC)c3)c3ccc(OC)c(OC)c3)sc2c1"
classassignment = "class 0"

[[record]]
compound = "COc1ccc2[nH]c(O)c(/C=c3/ccc4c(c3)N=C(c3ccc(C(F)(F)F)cc3)N=4)c2c1"
classassignment = "class 1"

[[record]]
compound = "COc1cc(C(=O)/C=C/c2cn(-c3ccccc3)nc2-c2cccc(Nc3ccnc4cc(Cl)ccc34)c2)cc(OC)c1OC"
classassignment = "class 0"

[[record]]
compound = "C/C(=N\\NC(=S)N1CCCCC1)c1ccccn1"
classassignment = "class 1"

[[record]]
compound = "C/C(=N\\OC(=O)Nc1cccc(Cl)c1)c1ccccc1"
classassignment = "class 0"


---

# Tested on: A549/ATCC NSCLC
# runDescription: NCI-60 one-dose screen, 48 h
# testContext: 10 µM unless noted
# Description: Growth inhibition of the A549/ATCC human Non-Small Cell Lung tumor cell line is measured as a screen for anti-cancer activity. Cells are grown in 96 well plates and exposed to the test compound for 48 hours. Compounds are tested at a single concentration, which is 10^-5 M for most compounds. The reported endpoint is percent growth (GI% or GIPRCNT), where numbers from 0 - 100% represent growth inhibition, and numbers from -100% - 0 represent cell death. […]
The panel holds about 83,000 compounds, 20% with a hit somewhere; the sample as a whole holds those more often. Activity calls are given as the source filed them. How the source made its calls: active means growth percent below 10; inactive means the rest.
Classes used: true (1) = active, false (0) = inactive

[[record]]
compound = "CCSc1ccc([C@@H]2[C@@H](N)C(=O)N2c2cc(OC)c(OC)c(OC)c2)cc1"
targetofassay = "A549/ATCC NSCLC"
classassignment = "false (0)"

[[record]]
compound = "Brc1cccc(-n2ncc3c(Nc4ccc(-c5nnc(-c6ccccc6)o5)cc4)ncnc32)c1"
targetofassay = "A549/ATCC NSCLC"
classassignment = "false (0)"

[[record]]
compound = "CN1CCN(Cc2ccc(NC(=O)c3cncc(C#Cc4ncc5ccccn45)c3)cc2C(F)(F)F)CC1"
targetofassay = "A549/ATCC NSCLC"
classassignment = "true (1)"

[[record]]
compound = "Cc1ccc2cc3c(NC(=O)c4cccnc4)nn(C)c3nc2c1"
targetofassay = "A549/ATCC NSCLC"
classassignment = "false (0)"

[[record]]
compound = "CCCN(CCC)CC(O)COc1ccccc1C(=O)Nc1ccccc1 (stereo not given)"
targetofassay = "A549/ATCC NSCLC"
classassignment = "false (0)"


---

# System: HOP-62 NSCLC
# runDescription: NCI-60 one-dose screen, 48 h
# testContext: 10 µM unless noted
Compounds without any hit were thinned out: in the full panel of roughly 83,000, 20% have a hit. Activity calls are given as the source filed them. Rule for the calls: active = growth percent below 10; inactive = the rest.
Classes used: 1 = active, -1 = inactive

[[record]]
compound = "O=c1[nH]c2cc(Cl)c(Cl)cc2o1"
classassignment = -1

[[record]]
compound = "C=C1NC(=O)C(C(C)CC)NC(=O)C2CSCC(NC(=O)CCC(=O)O)C(=O)NC(Cc3ccccc3)C(=O)NC(C)C(=O)NC(CC(C)CC)C(=O)NC(C(=O)NC(Cc3ccccc3)C(=O)N3CCCC3C(=O)N2)C(C)OC(=O)C(CO)NC(=O)C(C(O)COC)N(C)C(=O)C(C(C)C)NC(=O)C(CC(C)CC)NC1=O (stereo not drawn)"
classassignment = -1

[[record]]
compound = "CSCCC1NC(=O)C(C(C)=Nc2ccccc2)=C1O (stereo not drawn)"
classassignment = -1

[[record]]
compound = "CC[C@H](Nc1nc(C)nc(N)c1C#N)c1nc2cccc(NCc3ccc(C(=O)NO)cc3)c2c(=O)n1-c1ccccc1"
classassignment = -1

[[record]]
compound = "COc1ccc(C2=Nn3c(nnc3-c3ccc(Cl)cc3N)SC2)cc1"
classassignment = -1

[[record]]
compound = "FC(F)(F)C1=NNC(c2ccc3ccccc3c2)=NN1"
classassignment = -1

[[record]]
compound = "CC(=O)O[C@H]1[C@H](CC#CC#CC[C@@H]2C[C@]3(C)[C@H]4CC=C5[C@H]6[C@@H](C)[C@H](C)CC[C@]6(C(=O)NCCN(CCN)CCN)CC[C@@]5(C)[C@]4(C)CC[C@H]3C(C)(C)[C@H]2OC(C)=O)C[C@]2(C)[C@H]3CC=C4[C@H]5[C@@H](C)[C@H](C)CC[C@]5(C(=O)NCCN(CCN)CCN)CC[C@@]4(C)[C@]3(C)CC[C@H]2C1(C)C"
classassignment = -1

[[record]]
compound = "COc1ccc2[nH]c(O)c(/C=c3/ccc4c(c3)N=C(c3ccc(F)cc3)N=4)c2c1"
classassignment = -1

[[record]]
compound = "CCN(CC)Cc1cc(Nc2nc(NC3CCC(N(C)C)CC3)c3ccccc3n2)ccc1OC (stereo not drawn)"
classassignment = -1

[[record]]
compound = "COc1cccc(/C=N/N=C(N)N)c1"
classassignment = -1

[[record]]
compound = "CNC(=O)c1cc(Oc2ccc(NC(=O)c3nc(S(C)(=O)=O)sc3-c3ccc(F)cc3)cc2)ccn1"
classassignment = -1

[[record]]
compound = "C=CCn1c(SCC(=O)Nc2ccc(/C(C)=N\\O)cc2)nnc1-c1cc(-c2ccccc2)nc2ccccc12"
classassignment = -1

[[record]]
compound = "O=C(NC1CC1)c1ccc(-c2nc3ccc4[nH]ncc4c3c3c2CCCC3)cc1"
classassignment = -1

[[record]]
compound = "Cc1ccc(N=CNN=C(N)N)cc1"
classassignment = -1

[[record]]
compound = "O=[N+]([O-])c1cccc(N=C(Nc2cccc([N+](=O)[O-])c2)c2ccccc2)c1"
classassignment = -1

[[record]]
compound = "Cc1ccc(NC(=O)c2nc(S(C)=O)oc2-c2ccc(F)cc2)cc1Nc1nccc(-c2cccnc2)n1 (stereo not drawn)"
classassignment = -1

[[record]]
compound = "CN1CCN(c2ccc(N3Cc4ccccc4OC4=C3C(=O)c3c(O)ccc(O)c3C4=O)cn2)CC1"
classassignment = 1

[[record]]
compound = "CC(=O)O[C@H]1[C@H](CC#CC#CC[C@@H]2C[C@]3(C)[C@H]4CC=C5[C@H]6[C@@H](C)[C@H](C)CC[C@]6(C(=O)NCCCCCCCCN)CC[C@@]5(C)[C@]4(C)CC[C@H]3C(C)(C)[C@H]2OC(C)=O)C[C@]2(C)[C@H]3CC=C4[C@H]5[C@@H](C)[C@H](C)CC[C@]5(C(=O)NCCCCCCCCN)CC[C@@]4(C)[C@]3(C)CC[C@H]2C1(C)C"
classassignment = -1

